- System: Danio rerio Tg(wt1b:EGFP) embryo, pronephros
- protocol_description: fraction of imaged embryos annotated as normal kidney; higher = less nephrotoxic; extreme values may be limits of the assay
- assay_conditions: 25 µM; exposure: 24-48 hpf
Where a name gives a salt, the structure may show the parent alone.
Our labelling divides records by fraction of imaged embryos annotated as normal kidney into ranges: bottom end: < 0.8; midrange: ≥ 0.8 and < 0.9; top end: ≥ 0.9

compound | label_class
C#C[C@]1(O)CC[C@H]2[C@@H]3CCc4cc(OC)ccc4[C@H]3CC[C@@]21C | midrange
CCCCC(=O)O[C@H]1CC[C@H]2[C@@H]3CCc4cc(O)ccc4[C@H]3CC[C@]12C [Estradiol Valerate] | bottom end
CCn1cc(C(=O)O)c(=O)c2ccc(C)nc21 [Nalidixic acid sodium salt] | bottom end
CSc1ccc2c(c1)N(CCC1CCCCN1C)c1ccccc1S2 (stereo not given) [Thioridazine hydrochloride] | bottom end
CC(C)(C)c1ccc(C(O)CCCN2CCC(C(O)(c3ccccc3)c3ccccc3)CC2)cc1 (stereo not given) | bottom end
Cc1cc(-n2c(=O)[nH]c(=O)n(C)c2=O)ccc1Oc1ccc(SC(F)(F)F)cc1 | bottom end
O=C(CCCN1CC=C(n2c(=O)[nH]c3ccccc32)CC1)c1ccc(F)cc1 | bottom end
O=C(O[C@@H]1C[C@@H]2C[C@H]3C[C@H](C1)N2CC3=O)c1c[nH]c2ccccc12 [Dolasetron mesilate] | bottom end

INPUT: Form field 'band' for Nc1nc(F)nc2c1ncn2[C@@H]1O[C@H](CO)[C@@H](O)[C@@H]1O
OUTPUT: top end

INPUT: # repeat for Cc1oncc1C(=O)Nc1ccc(C(F)(F)F)cc1 [Leflunomide]
OUTPUT: bottom end

INPUT: Now give it for O=C1[C@H]2CCCC[C@H]2C(=O)N1CCCCN1CCN(c2nsc3ccccc23)CC1 too.
OUTPUT: top end

INPUT: Proceed to CC(=O)O[C@H]1C[C@@]2(C)[C@@H](C[C@@H](O)[C@H]3[C@@]4(C)CC[C@@H](O)[C@@H](C)[C@@H]4CC[C@@]32C)/C1=C(\CCC=C(C)C)C(=O)O [Fusidic acid sodium salt]
OUTPUT: top end

INPUT: Queued: CCOC(=O)[C@@](C)(N)Cc1ccc(O)c(O)c1 [Methyldopate hydrochloride]
OUTPUT: bottom end

INPUT: Okay, and c1ccc2c(c1)CCCC2C1=NCCN1 (stereo not given) [Tetrahydrozoline hydrochloride] ?
OUTPUT: top end

INPUT: Next: C[C@@H]1CN(c2c(F)c(N)c3c(=O)c(C(=O)O)cn(C4CC4)c3c2F)C[C@H](C)N1
OUTPUT: top end

INPUT: Try this compound next: CNCCCN1c2ccccc2CCc2ccccc21 [Desipramine hydrochloride]
OUTPUT: midrange

###

- System: Danio rerio Tg(wt1b:EGFP) embryo, pronephros
- protocol_description: pronephric angle neck segment to proximal convoluted tubule (mean of left and right), fold change vs DMSO control; higher = larger pronephric angle
- assay_conditions: 25 µM; exposure: 24-48 hpf
Where a name gives a salt, the structure may show the parent alone.
Listed here: items and their measured pronephric angle neck segment.
A bare number is all that is needed in reply.

Reference set (5 entries):
compound | measurement_target | pronephric angle neck segment
CC1(C)S[C@@H]2[C@H](NC(=O)Cc3ccccc3)C(=O)N2[C@H]1C(=O)O [Benzylpenicillin sodium] | Danio rerio Tg(wt1b:EGFP) embryo, pronephros | 1.02
COc1ccc2[nH]c([S+]([O-])Cc3ncc(C)c(OC)c3C)nc2n1 (stereo not drawn) | Danio rerio Tg(wt1b:EGFP) embryo, pronephros | 1.17
CC(C(=O)O)c1ccc2c(c1)Cc1cccnc1O2 (stereo not drawn) | Danio rerio Tg(wt1b:EGFP) embryo, pronephros | 1.05
Cc1ccnc2c1NC(=O)c1cccnc1N2C1CC1 | Danio rerio Tg(wt1b:EGFP) embryo, pronephros | 1.03
Nc1ccc(S(=O)(=O)Nc2ccccn2)cc1 | Danio rerio Tg(wt1b:EGFP) embryo, pronephros | 1

INPUT: What value of pronephric angle neck segment has been recorded for this entry: O=C(O)Cc1ccccc1Nc1c(Cl)cccc1Cl [Diclofenac sodium]
OUTPUT: 1.63

INPUT: What about this compound? Clc1ccc(COC(Cn2ccnc2)c2ccc(Cl)cc2Cl)c(Cl)c1 (stereo not drawn)
OUTPUT: 1.48

INPUT: Input O=C1O[C@H]([C@@H](O)CO)C(O)=C1O
OUTPUT: 1.03

INPUT: Here is the next compound: NCC[C@H](O)C(=O)N[C@@H]1C[C@H](N)[C@@H](O[C@H]2O[C@H](CN)[C@@H](O)[C@H](O)[C@H]2O)[C@H](O)[C@H]1O[C@H]1O[C@H](CO)[C@@H](O)[C@H](N)[C@H]1O [Amikacin hydrate]
OUTPUT: 1.04

INPUT: Param item: Nc1c(Br)cc(Br)cc1CN[C@H]1CC[C@H](O)CC1 [Ambroxol hydrochloride]
OUTPUT: 1

INPUT: Query Oc1ncnc2[nH]ncc12 next
OUTPUT: 0.972

INPUT: Now give it for CCN(CC)CCOc1ccc(C(=C(Cl)c2ccccc2)c2ccccc2)cc1 [Clomiphene citrate (Z,E)] too.
OUTPUT: 0.974

INPUT: Quick one: O=C(NCCO[N+](=O)[O-])c1cccnc1
OUTPUT: 0.923

###

- Tested on: Danio rerio Tg(wt1b:EGFP) embryo, pronephros
- protocol_description: pronephric angle neck segment to proximal convoluted tubule (mean of left and right), fold change vs DMSO control; higher = larger pronephric angle
- assay_conditions: 25 µM; exposure: 24-48 hpf
Label true when pronephric angle neck segment is at or above 1; anything below gets false.

compound | label_class
Nc1nc(CC(=O)Nc2ccc(CCNC[C@H](O)c3ccccc3)cc2)cs1 [Mirabegron] | false
CC[C@H](C)C(=O)O[C@H]1CCC=C2C=C[C@H](C)[C@H](CC[C@@H]3C[C@@H](O)CC(=O)O3)[C@H]21 [Mevastatin] | true
C[n+]1ccccc1/C=N/O [Pralidoxime chloride] | true
CS(=O)(=O)Nc1ccc([N+](=O)[O-])cc1Oc1ccccc1 [Nimesulide] | true
Cn1c(=O)c2[nH]cnc2n(C)c1=O [Aminophylline] | false

Continue with the compound presented below.
INPUT: Determine whether measured pronephric angle neck segment meets or exceeds 1 for Cc1cc(C2CCCCC2)n(O)c(=O)c1 [Ciclopirox ethanolamine]
OUTPUT: true

###

- Test system: Danio rerio Tg(wt1b:EGFP) embryo, pronephros
- protocol_description: pronephric angle neck segment to proximal convoluted tubule (mean of left and right), fold change vs DMSO control; higher = larger pronephric angle
- assay_conditions: 25 µM; exposure: 24-48 hpf
Where a name gives a salt, the structure may show the parent alone.
reported_endpoint: pronephric angle neck segment
Hey, just send me the number, nothing else.

compound | pronephric angle neck segment
O=C(O)c1cc(=O)c2c(OCC(O)COc3cccc4oc(C(=O)O)cc(=O)c34)cccc2o1 [Cromolyn disodium salt] | 1
CCC(=O)OCC(=O)[C@@]1(OC(=O)CC)[C@@H](C)C[C@H]2[C@@H]3CCC4=CC(=O)C=C[C@]4(C)[C@@]3(Cl)[C@@H](O)C[C@@]21C [Beclomethasone dipropionate] | 1.16
CCCc1nc2c(C)cc(-c3nc4ccccc4n3C)cc2n1Cc1ccc(-c2ccccc2C(=O)O)cc1 | 1.16

INPUT: Name the recorded pronephric angle neck segment for CN[C@H]1CC[C@@H](c2ccc(Cl)c(Cl)c2)c2ccccc21 .
OUTPUT: 0.969

INPUT: Same read-out for COc1ccccc1OCC(O)COC(N)=O (configuration not stated) ?
OUTPUT: 1

INPUT: Another compound: O=C(CCCN1CC=C(n2c(=O)[nH]c3ccccc32)CC1)c1ccc(F)cc1
OUTPUT: 1.04

INPUT: Try this compound too: COc1cccc(OC)c1C(=O)N[C@@H]1C(=O)N2[C@@H]1SC(C)(C)[C@@H]2C(=O)O [Methicillin sodium]
OUTPUT: 1

###

- Tested on: Danio rerio Tg(wt1b:EGFP) embryo, pronephros
- protocol_description: pronephric angle neck segment to proximal convoluted tubule (mean of left and right), fold change vs DMSO control; higher = larger pronephric angle
- assay_conditions: 25 µM; exposure: 24-48 hpf
Where a name gives a salt, the structure may show the parent alone.
Recorded pronephric angle neck segment for the following compounds

Take a look at these entries with their results.
compound | test_result
CN(C)CCOC(C)(c1ccccc1)c1ccccn1 (stereo not drawn) [Doxylamine succinate] | 1.01
NC(=O)c1cc[n+](CC2=C(C(=O)[O-])N3C(=O)[C@@H](NC(=O)[C@@H](c4ccccc4)S(=O)(=O)O)[C@H]3SC2)cc1 [Cefsulodin sodium salt] | 0.976
Cc1onc(-c2ccccc2)c1-c1ccc(S(N)(=O)=O)cc1 [Valdecoxib] | 0.944
COc1ccc(C(=O)c2ccccc2O)c(O)c1 [Dioxybenzone] | 1.09
Cc1[nH]cnc1CN1CCc2c(c3ccccc3n2C)C1=O [Alosetron hydrochloride] | 0.977
COc1cc(Cc2cnc(N)nc2N)cc(OC)c1OC [Trimethoprim] | 1.05

INPUT: Name the reported pronephric angle neck segment value associated with the compound NCCC[C@H](N)CC(=O)N[C@H]1CNC(=O)[C@H]([C@H]2C[C@H](O)NC(N)=N2)NC(=O)/C(=C/NC(N)=O)NC(=O)[C@H](CO)NC(=O)[C@H](CO)NC1=O [Viomycin sulfate]
OUTPUT: 1.07

INPUT: Request: CN(C)/N=N/c1[nH]cnc1C(N)=O [Dacarbazine]
OUTPUT: 0.997
